Target: UniProt P38532
Sequence (P38532 whole entry): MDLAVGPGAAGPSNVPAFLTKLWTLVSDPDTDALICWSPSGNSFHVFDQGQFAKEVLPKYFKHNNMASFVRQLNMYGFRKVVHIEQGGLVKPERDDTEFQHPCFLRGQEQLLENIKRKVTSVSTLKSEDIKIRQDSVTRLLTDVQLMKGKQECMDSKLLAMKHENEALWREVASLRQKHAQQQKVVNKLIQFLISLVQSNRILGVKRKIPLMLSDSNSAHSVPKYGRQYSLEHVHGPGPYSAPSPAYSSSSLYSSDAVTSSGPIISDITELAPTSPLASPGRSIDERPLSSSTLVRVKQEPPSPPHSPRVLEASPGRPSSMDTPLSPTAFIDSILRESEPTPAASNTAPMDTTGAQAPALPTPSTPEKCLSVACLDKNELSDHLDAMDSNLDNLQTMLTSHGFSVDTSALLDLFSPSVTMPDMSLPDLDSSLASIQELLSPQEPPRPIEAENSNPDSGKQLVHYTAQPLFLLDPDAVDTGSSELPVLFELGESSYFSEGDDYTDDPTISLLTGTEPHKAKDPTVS
Experiment: HSF1 potentiators in luciferase reporter cells, confirmation, cell-based, NIH3T3, luminescence, dose retest (AID 435004);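 also: stress induced by proteasome inhibitor MG132 added 30 min after compound; luciferase reporter driven by HSF1 response element in NIH3T3 cells; actives raise luminescence as potentiators of the MG132 stress response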
Assay type: functional
Calls of active or inactive are those of the source.
Use one of these outcomes when replying: label 1 for active, label 0 for inactive

Solved entries (count: 4):
In [3]: df
Out[3]:
                              smiles_record  label_value
0  CN(c1ccccc1)c1nc(N)c([N+](=O)[O-])c(N2CCCCCC2)n1      label 1
1  Sc1nnc(-c2ccccc2)n1/N=C/c1ccc(-c2ccccc2Cl)o1      label 0
2  O=C(CSc1nnc(-c2ccc(F)cc2)c2ccccc12)Nc1ccccc1      label 1
3  CCOC(=O)c1sc(NC(=O)CCN2CCC(C)CC2)c(C(=O)OCC)c1C      label 0

Please look at the following compound next.
In this assay, the call recorded for O=C(c1ccc(F)cc1F)C1CCN(c2ccc([N+](=O)[O-])cn2)CC1 was what?
label 0

###

Record form. Attribute: AC50. Fill in for each entry.
Assay: ZM109 Env clade C HIV-1 fusion inhibitors, dose response, HeLa effector, CEM target cells, luciferase, cherry-pick (AID 652058)
Format: functional, cell-based
Calls of active or inactive are those of the source.

Please review the entries below; each comes with its answer.
>>> df
                                   compound  property_measured  experimental_value
0       COc1cccc(NC(=O)Nc2cccc(C(=O)O)c2)c1               AC50    7.32 µM (active)
1  Cc1[nH]c2ccc(OC(F)(F)F)cc2c1CCNCc1ccc(Cl)cc1               AC50    1.24 µM (active)
2                   Cn1c(O)nc2cc3ccccc3cc21               AC50    53.3 µM (active)

Okay, now this compound:
Field AC50 (entry CC1CCC(NC(=O)CCn2ccc3cc(S(=O)(=O)N4CCCC4)ccc32)CC1 (centres undefined) ) reads 0.999 µM (active)

###

Target: UniProtKB Q9GZR1
Sequence (Q9GZR1 whole entry): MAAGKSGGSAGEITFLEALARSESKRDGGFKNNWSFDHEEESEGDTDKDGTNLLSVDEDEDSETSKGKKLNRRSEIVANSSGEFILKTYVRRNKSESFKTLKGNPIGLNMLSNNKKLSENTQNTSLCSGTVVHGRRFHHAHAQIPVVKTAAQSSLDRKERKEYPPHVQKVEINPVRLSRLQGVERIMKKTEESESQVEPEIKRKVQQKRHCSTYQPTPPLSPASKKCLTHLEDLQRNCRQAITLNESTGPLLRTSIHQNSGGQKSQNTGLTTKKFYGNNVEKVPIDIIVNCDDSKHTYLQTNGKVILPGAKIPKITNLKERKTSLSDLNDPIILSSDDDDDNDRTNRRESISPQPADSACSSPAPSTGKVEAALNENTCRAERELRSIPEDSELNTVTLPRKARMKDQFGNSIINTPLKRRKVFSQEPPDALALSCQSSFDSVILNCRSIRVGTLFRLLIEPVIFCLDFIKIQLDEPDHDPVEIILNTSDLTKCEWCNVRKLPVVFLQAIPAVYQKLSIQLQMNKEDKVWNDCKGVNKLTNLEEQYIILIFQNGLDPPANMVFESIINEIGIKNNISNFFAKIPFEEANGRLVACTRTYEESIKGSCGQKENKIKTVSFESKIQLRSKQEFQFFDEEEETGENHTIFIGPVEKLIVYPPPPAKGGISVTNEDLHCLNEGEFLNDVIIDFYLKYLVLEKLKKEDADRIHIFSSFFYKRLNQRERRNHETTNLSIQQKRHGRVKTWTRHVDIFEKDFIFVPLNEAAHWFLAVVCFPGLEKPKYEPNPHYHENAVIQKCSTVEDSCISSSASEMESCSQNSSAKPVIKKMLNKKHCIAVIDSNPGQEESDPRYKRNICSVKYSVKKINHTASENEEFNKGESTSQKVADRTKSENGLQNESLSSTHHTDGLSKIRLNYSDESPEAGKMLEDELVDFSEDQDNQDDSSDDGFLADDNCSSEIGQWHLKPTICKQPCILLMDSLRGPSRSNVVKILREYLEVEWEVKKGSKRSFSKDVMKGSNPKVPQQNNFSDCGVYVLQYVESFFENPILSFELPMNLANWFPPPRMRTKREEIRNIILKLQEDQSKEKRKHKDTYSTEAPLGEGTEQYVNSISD
Assay type: functional
Activity calls are given as the source filed them.
Select the correct class. Options are active, inactive and nothing else.

Tell me the assay call for C=CCNC1=C(Cl)C(=O)c2ccccc2C1=O please.
active

Returns: the outcome recorded for O=C1c2ccccc2C(=O)N1CCSc1ccccc1 in this assay.
active

Look up the recorded call for Cc1n[nH]c(O)c1N=Nc1ccc(Br)c(Cl)c1 in this test.
active

Hi, do you know how CN(C)c1ccc(-c2nnc(-c3cccs3)o2)cc1 came out in this test?
inactive

Which outcome did this test record for the compound Cc1[nH]n(-c2ccccc2)c(=O)c1N=Nc1cccc(C(=O)O)c1 ?
active

###

Biological target: Kappa-type opioid receptor (Homo sapiens)
Sequence (P41145 whole entry): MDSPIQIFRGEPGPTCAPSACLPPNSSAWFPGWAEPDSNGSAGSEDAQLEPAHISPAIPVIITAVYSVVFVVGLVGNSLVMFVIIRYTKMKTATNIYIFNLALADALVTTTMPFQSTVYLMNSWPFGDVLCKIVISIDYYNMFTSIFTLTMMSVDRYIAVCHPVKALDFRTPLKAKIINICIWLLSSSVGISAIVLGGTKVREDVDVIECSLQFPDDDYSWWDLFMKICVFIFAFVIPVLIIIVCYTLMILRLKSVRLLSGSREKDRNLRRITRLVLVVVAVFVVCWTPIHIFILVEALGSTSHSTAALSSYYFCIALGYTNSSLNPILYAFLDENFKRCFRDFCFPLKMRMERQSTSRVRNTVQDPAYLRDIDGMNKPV
Format: functional
pIC50: −log10 of the molar value.
property_measured: pIC50

Memo: O=C(C#Cc1cccc([N+](=O)[O-])c1)c1ccccc1 , reported pIC50: < 4.49

###

Target: DNA dC->dU-editing enzyme APOBEC-3G (Homo sapiens);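 also: Dose-response counterscreen measuring inhibition of APOBEC3G DNA deaminase activity, run while confirming APOBEC3A inhibitors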
Sequence (Q9HC16 whole entry): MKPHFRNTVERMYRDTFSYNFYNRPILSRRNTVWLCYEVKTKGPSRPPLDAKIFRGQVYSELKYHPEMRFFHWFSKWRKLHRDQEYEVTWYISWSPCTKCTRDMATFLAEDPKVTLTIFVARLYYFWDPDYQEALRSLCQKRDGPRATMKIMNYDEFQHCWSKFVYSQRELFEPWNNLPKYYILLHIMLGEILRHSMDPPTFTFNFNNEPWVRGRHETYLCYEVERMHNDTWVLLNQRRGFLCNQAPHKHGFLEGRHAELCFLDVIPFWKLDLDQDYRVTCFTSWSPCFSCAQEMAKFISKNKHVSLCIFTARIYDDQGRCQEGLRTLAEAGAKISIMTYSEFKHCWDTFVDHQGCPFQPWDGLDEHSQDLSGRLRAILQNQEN
Assay type: functional
The source made the active and inactive calls.
property_measured: IC50

# example entries with known answers
In [3]: df
Out[3]:
                                   compound                                 tested_on  property_measured  experimental_value
0        CCn1c(SCC(=O)O)nc2sc3c(c2c1=O)CCC3  DNA dC->dU-editing enzyme APOBEC-3G (Homo sapiens)               IC50    40.8 µM (active)
1  CC(Oc1ccc(F)cc1)C(=O)Nc1cc(S(=O)(=O)N2CCOCC2)ccc1N1CCN(C)CC1 (stereo not given)  DNA dC->dU-editing enzyme APOBEC-3G (Homo sapiens)               IC50    8.29 µM (active)

// each compound listed below needs its IC50
1. C[n+]1cccc(/C=N/NC(=O)CC23CC4CC(CC(C4)C2)C3)c1
2. Fc1ccccc1Sc1ccccc1CNC1=NCCN1
3. CC(=O)c1c(COC(=O)c2cccnc2)nc2ccccc2[n+]1[O-]

1. 3.28 µM (active)
2. 2.77 µM (active)
3. 2.09 µM (active)
